The values you see were collected from PubChem BioAssay (NCI).

Measured TGI, listed per entry for reference.
# Test system: A549 NSCLC
# testSummary: NCI tumour cell line growth inhibition, 48 h

These recorded examples may help you get a feel for the data.
C/C(=N/Nc1nc(C)cc(=O)[nH]1)C(=O)O
> 100 µM
C[CH2][Sn]([CH2]C)([O]C(=O)c1ccc(OC)c(OC)c1OC)[O]C(=O)c1ccc(OC)c(OC)c1OC
> 100 µM
CCCCCCCCC/C=C1/CC(CO)(COC(=O)c2ccccc2)OC1=O (stereo not given)
26.7 µM

GET /values?readout=TGI&system=A549 NSCLC&item= `COC(=O)C1=NN2c3ccccc3CN([C@@H](C)c3ccccc3)C(=O)[C@@H]2[C@H]1c1ccccc1`
> 100 µM

GET /values?readout=TGI&system=A549 NSCLC&item= `O=C1C=CC2(C=C1)C[C@H](NC(=O)OCc1ccccc1)C(=O)O2`
> 78.5 µM

GET /values?readout=TGI&system=A549 NSCLC&item= `CCCCc1c2c(c(C)c3c1C(=O)OC3)Oc1ccccc1O2`
> 43.2 µM

GET /values?readout=TGI&system=A549 NSCLC&item= CCOC(=O)C(Cc1ccc(N(CCCl)CCCl)cc1)NC(=O)CCCN1C(=O)CN=C(c2ccccc2)c2cc(Cl)ccc21 (stereo not given)
> 100 µM

GET /values?readout=TGI&system=A549 NSCLC&item= `O=C1O/C(=C\c2ccc(O)cc2)C(c2ccc(O)c(Cl)c2)=C1Cl`
> 100 µM

GET /values?readout=TGI&system=A549 NSCLC&item= `C/C(=N/N=C(N)N)c1ccc(NC(=O)Nc2ccc(/C(C)=N/N=C(N)N)cc2)cc1`
54.8 µM

GET /values?readout=TGI&system=A549 NSCLC&item= `O=C(O)Cc1cccc2c(=O)c3cccc([N+](=O)[O-])c3oc12`
> 100 µM

====

# Tested on: OVCAR-8 ovarian
# testSummary: NCI tumour cell line growth inhibition, 48 h
measurementType: TGI (µM)
Write the value in µM as a bare number.

These recorded examples may help you get a feel for the data.
CCN(CC)CCNc1ccc2nc(C)n3c4ccc(O)cc4c(=O)c1c23
3.23
Cc1nccc2c3ccc(OCc4cn(-c5ccc(Cl)cc5)nn4)cc3n(CC(C)C)c12
16.2
COc1ccc(C(=O)/C=C/c2ccc(OCC(=N)N)cc2)cc1
37.3

Would you mind telling me what TGI value was observed for CC(=O)OCC1OC(n2nc(Cc3ccccc3)c(=S)[nH]c2=S)C(OC(C)=O)C(OC(C)=O)C1OC(C)=O (configuration not stated) ?
58.4

Would you mind telling me what TGI value was observed for `O=[N+]([O-])C(=C/c1cccs1)/C(=C\c1cccs1)[N+](=O)[O-]` ?
8.06

Would you mind telling me what TGI value was observed for `Cc1ccc(S(=O)(=O)Nc2ccc(-c3cc(-c4cccc(F)c4)c(C#N)c(N)n3)cc2)cc1` ?
7.83

Would you mind telling me what TGI value was observed for `CSc1ccc(C(=O)/C=C/c2ccccc2Cl)cc1` ?
32.5

Would you mind telling me what TGI value was observed for `COc1cccc(-c2c(-c3ccccc3)[nH]c(C)c2C(=O)ONC(=O)c2ccccc2)c1` ?
19.1

Would you mind telling me what TGI value was observed for `CCCCc1c2c(c(C)c3c1C(=O)OC3)Oc1ccccc1O2` ?
35.7

Would you mind telling me what TGI value was observed for `CCCCCC[C@H](C)NC(=O)c1ccc(Nc2nc3ccccc3c3occc23)cc1` ?
8

====

# System: SK-MEL-2 melanoma
# testSummary: NCI tumour cell line growth inhibition, 48 h
Measured TGI, listed per entry for reference.

These recorded examples may help you get a feel for the data.
[O-]c1c2c(nn1-c1ccc(Cl)cc1)c1ccccc1c[n+]2Cc1ccccc1
> 100 µM
COc1cc(/C=N/NC2=NCCCCN2)ccc1O
> 100 µM
Cc1cc(Cl)cc(Cc2cc(Cl)cc(C)c2O)c1O
5.73 µM

Would you mind telling me what TGI value was observed for O=C1CC2SC(COCc3ccccc3)(CCN2Cc2ccccc2)C1 (stereo not given) ?
> 100 µM

Would you mind telling me what TGI value was observed for `CCCCCC[C@H](C)NC(=O)c1ccc(Nc2nc3ccccc3c3occc23)cc1` ?
6.83 µM

Would you mind telling me what TGI value was observed for CC(O)[C@@]1(c2ccccc2)CC2(CCN(C)CC2)O[C@H]1C (stereo not given in full) ?
> 100 µM

Would you mind telling me what TGI value was observed for `Cn1c(N=P(c2ccccc2)(c2ccccc2)c2ccccc2)c([N+](=O)[O-])c(=O)n(C)c1=O` ?
> 100 µM

Would you mind telling me what TGI value was observed for `CCCCC(=O)Nc1ccc2c(C)cc(-c3ccc(-c4cc(-c5ccc(C)cc5)cc(-c5ccc(-c6cc(C)c7ccc(NC(=O)CCCC)nc7n6)cc5)n4)cc3)nc2n1` ?
> 100 µM

====

# Tested on: BT-549 breast
# testSummary: NCI tumour cell line growth inhibition, 48 h; in the data active means GI50 below about 0.43 µM; inactive means the rest
Outcome field: choose from 1 = active, 0 = inactive

// known answers, use as guide
CCCN1CCC(c2ccc(Nc3nc(Nc4cc(F)ccc4C(N)=O)c4cc[nH]c4n3)c(OC)c2)CC1
0
COc1ccc(OC)c(/C=C/c2nc(SCc3ccccc3)n(-c3ccc(Cl)cc3)n2)c1
0
COc1cccc(Nc2nccc(-c3cnn4ncccc34)n2)c1
1
C/C(=N/N=C(N)N)c1ccc(NC(=O)Nc2ccc(/C(C)=N/N=C(N)N)cc2)cc1
0
CN1CCN(Cc2ccc(NC(=O)c3cncc(C#Cc4cnc(N)c5cnccc45)c3)cc2C(F)(F)F)CC1
0
COc1ccc(/C=C2\c3cc(OC)c(OC)c(OC)c3CC[C@@H]2O)cc1F
0
COC1=CC(=O)c2nc(Cl)ccc2C1=O
0
Nc1c(F)cc(-c2nc3cc(F)ccc3[se]2)cc1Br
1
C=C1C(=O)O[C@H]2[C@H]1CC/C(COC(=O)NCCCCCCCCNC(=O)OC/C1=C/CC[C@@]3(C)O[C@H]3[C@H]3OC(=O)C(=C)[C@@H]3CC1)=C\CC[C@@]1(C)O[C@@H]21
1
FC(F)(F)c1cc(Nc2ccc3cc(OCCCN4CCOCC4)ccc3n2)ccc1Cl
0

What did this assay record as the result for `CC1(C)N=C(N)N=C(N)N1c1cccc(Br)c1` ?
0

What did this assay record as the result for `COc1cnc2c(c1)C(=O)c1c-2n(CCCN2CCNCC2)c(=O)c2cc([N+](=O)[O-])ccc12` ?
0

What did this assay record as the result for `Nc1ncnc2c1ccn2[C@@H]1O[C@H]([C@H](O)c2ccc(Cl)c(F)c2)[C@@H](O)[C@H]1O` ?
0

What did this assay record as the result for `Cc1nccc2c3ccc(OCc4cn(-c5ccc(Cl)cc5)nn4)cc3n(CC(C)C)c12` ?
0

What did this assay record as the result for Cc1ccc(OCC2OC(n3cnc4c(Br)nc(Br)nc43)CC2Oc2ccc(C)cc2)cc1 (stereo not drawn) ?
0

What did this assay record as the result for `COCCn1cc(-c2csc(-c3c[nH]c4ccc(Br)cc34)n2)c2cccnc21` ?
0

What did this assay record as the result for `Cc1ccc(S(=O)(=O)Nc2ccc(-c3cc(-c4cccc(F)c4)c(C#N)c(N)n3)cc2)cc1` ?
0

What did this assay record as the result for CCCCCCCC(=O)[O][Hg][CH2]C1COC([CH2][Hg][O]C(=O)CCCCCCC)CO1 (stereo not drawn) ?
0

====

Measured TGI, listed per entry for reference.
# Tested on: HCT-116 colon
# testSummary: NCI tumour cell line growth inhibition, 48 h

These recorded examples may help you get a feel for the data.
Cc1ccccc1C1CC(c2ccccc2)=NO1 (stereo unspecified)
> 100 µM
O=c1c(Cl)cc2nc3ccccc3sc-2c1Cl
32.5 µM
CCCCc1ccc(C#CC#Cc2ccc(CCCC)s2)s1
> 100 µM
C1CN2CCNCCN(CCN1)CC2
> 100 µM
COc1cc(/C=C/C(=O)c2c(C)nc3ccccc3c2C)ccc1OCCCN1CCN(C(=O)c2ccco2)CC1
15.7 µM

Next item in the queue.
Would you mind telling me what TGI value was observed for O=C(O)CCC(C(=O)O)N1C(=O)C2C3CCC(C3)C2C1=O (stereo unspecified) ?
> 100 µM

====

# Test system: CCRF-CEM leukemia
# testSummary: NCI tumour cell line growth inhibition, 48 h
Measured TGI, listed per entry for reference.

These recorded examples may help you get a feel for the data.
CCCCCC[C@H](C)NC(=O)c1ccc(Nc2nc3ccccc3c3occc23)cc1
> 100 µM
CN(C)CCOC(=O)Nc1nc2ccc(Sc3ccccc3)cc2[nH]1
16.3 µM
CC(O)[C@@]1(c2ccccc2)CC2(CCN(C)CC2)O[C@H]1C (stereo partly specified)
79 µM

Would you mind telling me what TGI value was observed for COC1/C=C/C(C)C(C(C)C(OC)C(C)CCC(=O)C(C)C(CC(=O)O)OC)OC(=O)/C=C/C=C(\C)CC(OC)CC2=CC(=O)O[C@H](C2)C(C)C(OC)CC(OC)/C=C/C(C)C(OC)C1 (stereo partly specified) ?
> 4.35 µM

Would you mind telling me what TGI value was observed for `[O-]c1c2c(nn1-c1ccc(Cl)cc1)c1ccccc1c[n+]2Cc1ccccc1` ?
> 100 µM

Would you mind telling me what TGI value was observed for `COc1cc2c[n+](C)c3c(c2cc1OC)Cc1cc2c(cc1-3)OCO2` ?
> 100 µM

Would you mind telling me what TGI value was observed for `O=c1cc(-c2ccccc2)[nH]c2cc(Cl)ccc12` ?
11.4 µM

Would you mind telling me what TGI value was observed for `Cn1c(N=P(c2ccccc2)(c2ccccc2)c2ccccc2)c([N+](=O)[O-])c(=O)n(C)c1=O` ?
76.6 µM
